Tested on: Candida albicans
Assay: Antimicrobial activity against Candida albicans NCIM 3102 assessed as diameter of growth inhibition zone at 100 ug/ml after 48 hr by paper disk diffusion method
Assay type: functional
Details: NCIM 3102, 48 h, read-out: DIZ
measurementType: zone of inhibition at 100 µg/mL

Challenge: Which measured zone of inhibition at 100 µg/mL value corresponds to Cc1ccccc1-c1nc2ccccc2c(=O)n1C(=O)CCC(N)C(=O)O (stereo not given) ?
Response given: 12 mm

Challenge: # zone of inhibition at 100 µg/mL lookup, item NC(CCC(=O)n1c(-c2ccc(F)c(F)c2F)nc2ccccc2c1=O)C(=O)O (stereo not given)
Response given: 13.6 mm

Challenge: Need zone of inhibition at 100 µg/mL of NC(CCC(=O)n1c(Cc2ccccc2)nc2ccccc2c1=O)C(=O)O (stereo not given) , thanks.
Response given: 14 mm

Challenge: Using the record for COc1ccc(-c2nc3ccccc3c(=O)n2C(=O)CCC(N)C(=O)O)cc1 (stereo not given) , report its zone of inhibition at 100 µg/mL.
Response given: 10 mm

Challenge: Please give the measured zone of inhibition at 100 µg/mL for this compound: NC(CCC(=O)n1c(-c2cc(F)cc(F)c2)nc2ccccc2c1=O)C(=O)O (stereo not given)
Response given: 11 mm

Data origin: ChEMBL document CHEMBL3044707
